Entry source: patent US10131652B2

test system: blackgrass (Alopecurus myosuroides); assay: Test B postemergence plant response; type: in vivo; conditions: 125 g ai/ha, postemergence; 0 to 100 scale, 0 no effect, 100 complete control
Readout type: Plant response rating, Blackgrass
No unit in the answer, please; the number alone is enough.

Here's what some known entries look like.
Smiles str: Clc1cnc(Oc2ccccc2-c2nnc(C3CC3)o2)nc1
Plant response rating, Blackgrass: 0

Smiles str: N#Cc1cccc(Oc2ncc(Cl)cn2)c1-c1cc(C(F)(F)F)ccn1
Plant response rating, Blackgrass: 30

Smiles str: CC(C)n1cnc(-c2ccccc2Oc2ncc(Cl)cn2)n1
Plant response rating, Blackgrass: 0

Smiles str: Fc1cccc(Oc2ncc(Br)cn2)c1-c1cc(C(F)F)on1
Plant response rating, Blackgrass: 100

Smiles str: Fc1ccc(-c2cc(C(F)(F)F)no2)c(Oc2ncc(Cl)cn2)c1
Plant response rating, Blackgrass: 30

Smiles str: O=Cc1cc(-c2ccccc2Oc2ncc(Cl)cn2)co1
Plant response rating, Blackgrass: 0

Smiles str: Cn1ccnc1-c1ccccc1Oc1ncc(Cl)cn1
Plant response rating, Blackgrass: 0

Smiles str: Cc1nc(-c2ccccc2Oc2ncc(Cl)cn2)co1
Plant response rating, Blackgrass: 0

**Query** Query (compound): `Cn1ccnc1-c1ccccc1Oc1ncc(Br)cn1` ; field requested: Plant response rating, Blackgrass
**Result** 0

**Query** Same thing, different compound: `Cc1cnc(Oc2ccccc2-c2cc(C(C)(F)F)on2)nc1`
**Result** 70

**Query** Same thing, different compound: `N#Cc1cccc(Oc2ncc(Cl)cn2)c1-c1cc(C(F)(F)F)on1`
**Result** 70

**Query** Same thing, different compound: `Fc1cnc(Oc2ccccc2-c2cnccn2)nc1`
**Result** 0

**Query** Same thing, different compound: `CC(=O)c1cc(-c2ccccc2Oc2ncc(Cl)cn2)no1`
**Result** 0

**Query** Same thing, different compound: `N#Cc1cc(-c2ccccc2Oc2ncc(Cl)cn2)no1`
**Result** 0

**Query** Same thing, different compound: `Cn1nc(-c2c(C#N)cccc2Oc2ncc(Cl)cn2)cc1C(F)(F)F`
**Result** 30

**Query** Same thing, different compound: `CC(C)(F)c1cc(-c2ccccc2Oc2ncc(Cl)cn2)no1`
**Result** 40

**Query** Same thing, different compound: `N#Cc1cccc(Oc2ncc(Cl)cn2)c1-c1cc(C(F)F)on1`
**Result** 90

**Query** Same thing, different compound: `FC(F)(F)c1ccc(-c2c(Cl)cccc2Oc2ncc(Cl)cn2)nc1`
**Result** 50

**Query** Same thing, different compound: `Fc1cnc(Oc2cccc(F)c2-c2cnccn2)nc1`
**Result** 0

**Query** Same thing, different compound: `Cc1cc(-c2c(F)cccc2Oc2ncc(Br)cn2)on1`
**Result** 70

====

tested on: giant foxtail (Setaria faberii); test: Test D pre-/postemergence plant response; format: in vivo; conditions: Postemergence, 31 g ai/ha; scale 0 to 100 (0 no effect, 100 complete control)
Below is a list of entries, each paired with its recorded Foxtail, Giant plant response rating value.
No unit in the answer, please; the number alone is enough.

Here's what some known entries look like.
Molecule: FC(F)(F)c1cc(-c2c(Cl)cccc2Oc2ncc(Cl)cn2)no1 [Compound 169]
Experimental system: giant foxtail (Setaria faberii)
Numeric value: 5
//
Molecule: CC(F)(F)c1cc(-c2ccccc2Oc2ncc(Cl)cn2)on1 [Compound 178]
Experimental system: giant foxtail (Setaria faberii)
Numeric value: 5
//
Molecule: FC(F)c1cc(-c2c(Cl)cccc2Oc2ncc(Cl)cn2)on1 [Compound 120]
Experimental system: giant foxtail (Setaria faberii)
Numeric value: 10

**Query** Query (molecule): N#Cc1cccc(Oc2ncc(Cl)cn2)c1-c1cc(C(F)F)on1 [Compound 180] ; field requested: Foxtail, Giant plant response rating
**Result** 50

**Query** Same thing, different molecule: FC(F)(F)c1cc(-c2ccccc2Oc2ncc(Cl)cn2)ncn1 [Compound 54]
**Result** 30
